Target: rhCRTh2 (Homo sapiens, UniProt Q9Y5Y4)
Construct: expression induced with sodium butyrate); membrane preparation
Sequence (Q9Y5Y4 whole entry): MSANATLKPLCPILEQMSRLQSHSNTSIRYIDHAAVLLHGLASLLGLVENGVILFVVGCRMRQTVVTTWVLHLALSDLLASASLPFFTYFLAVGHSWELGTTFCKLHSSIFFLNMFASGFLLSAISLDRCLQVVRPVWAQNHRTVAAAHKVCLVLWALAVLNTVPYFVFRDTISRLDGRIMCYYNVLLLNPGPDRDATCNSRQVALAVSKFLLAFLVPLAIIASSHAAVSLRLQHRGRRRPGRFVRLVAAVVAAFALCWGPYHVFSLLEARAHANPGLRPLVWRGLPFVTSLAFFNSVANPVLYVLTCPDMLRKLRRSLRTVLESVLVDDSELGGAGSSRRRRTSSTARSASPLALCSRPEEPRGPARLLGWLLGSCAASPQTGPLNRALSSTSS
Experiment: Ligand Binding Assay ([3H]PGD2 SPA, HEK cell membranes)
Details: [3H]PGD2 displacement, membranes of HEK cells expressing rhCRTh2/Gα16, SPA beads, 2 hours room temperature
measured quantity: IC50 (nM)

P: COc1cccc(Sc2c(C)n(CC(=O)O)c3ccc(C)cc23)c1
Q: Cc1ccc2c(c(Sc3nc(-c4ccccc4)cs3)c(C)n2CC(=O)O)c1S(C)(=O)=O
R: Cc1c(Sc2ccc(Cl)cc2)c2c(N3CCN(C(=O)OC(C)(C)C)CC3)cccc2n1CC(=O)O
Qu. Sort the entries above by IC50, smallest first. List the labels in the requested order.
Ans. P, Q, R
